test system: SF-295 CNS; experiment: NCI-60 one-dose screen, 48 h (100 = growth as untreated, 0 = no growth, -100 = all killed); conditions: 10 µM unless noted
This is part of a sample that, as a whole, favours compounds with a hit. Of some 83,000 tested, about 20% had one in any assay.
Hi, to clarify the labels: Criterion met covers growth from 10% upward, Criterion not met covers anything below 10%.

molecule="O=C1C=C2C(=CCOC2O)O1 (centres undefined)" group="Criterion met"
molecule="C1CCC([PH+](C2CCCCC2)C2CCCCC2[PH+](C2CCCCC2)C2CCCCC2)CC1.[Au].[CH-]1CCCCC1CC1CCCC[N-]1 (centres undefined)" group="Criterion not met"
molecule=COC(=O)[C@@H](C)C[C@H](Cc1ccccc1)NC(=O)c1cccc([C@@H](C[C@H](C(C)C)N(C)C(=O)[C@@H](NC(=O)[C@H]2CCCCN2C)C(C)C)OC(C)=O)n1 group="Criterion not met"
molecule=Oc1c(O)c(Cl)c(Cl)c(Cl)c1Cl group="Criterion not met"
molecule=ClCCN(CCCl)c1ccc(/C=N\N=C\c2ccc(N(CCCl)CCCl)cc2)cc1 group="Criterion met"
molecule=OCc1ccc2c(c1)OCO2 group="Criterion met"
molecule=c1cnc2[nH]cc(-c3csc(-c4cn(CCCCN5CCOCC5)c5ccccc45)n3)c2c1 group="Criterion met"
molecule=CC1=C(CCCNS(C)(=O)=O)C2=C(C)C3(CC3)[C@@](C)(O)C(=O)C2=C1 group="Criterion not met"
molecule=C/C(=C\c1cc(C(F)(F)F)nn1CCNC(=O)OC(C)(C)C)[C@@H]1C[C@@H]2O[C@]2(C)CCC[C@H](C)[C@H](O)[C@@H](C)C(=O)C(C)(C)[C@@H](O)CC(=O)O1 group="Criterion met"
molecule=CC(C)(NC(=O)O[C@@H]1CN2CCC1CC2)c1csc(-c2ccc(F)cc2)n1 group="Criterion met"
molecule=CCCCCCCOC(C(=O)OCCN(CC)CC)(c1ccccc1)c1ccccc1 group="Criterion met"
molecule=ClCCN(CCCl)c1ccc(OCc2ccccc2)cc1 group="Criterion met"
molecule=COc1ccc(/C=C\c2cc(OC)c(OC)c(OC)c2)cc1NC(=O)/C=C/c1cc(OC)c(OC)c(OC)c1 group="Criterion met"
molecule=COc1ccc(/C=C\c2cc(OC)c(OC)c(OC)c2)cc1NS(=O)(=O)c1ccc(Cl)cc1 group="Criterion met"
molecule=CS(=O)(=O)CCN1CC2CCCC(C2)C1 group="Criterion met"
molecule="CC(=O)OC1CCC2(C)C(CCC3C2CC(=O)C2(C)C3CC(Sc3ccc(N(CCCl)CCCl)cc3)C2C(C)=O)C1 (centres undefined)" group="Criterion met"
molecule=COC(=O)[C@@H](C)C[C@H](Cc1ccccc1)NC(=O)c1csc([C@@H](C[C@H](C(C)C)N(C)C(=O)[C@H](C)NC(=O)[C@H]2CCCCN2C)OC(C)=O)n1 group="Criterion met"
molecule=CCOC(=O)N1CC1 group="Criterion met"
molecule=N#CC1(c2ccccc2)CCN(Cc2ccccc2)CC1 group="Criterion met"

---

system: OVCAR-8 ovarian; assay: NCI-60 one-dose screen, 48 h; conditions: 10 µM unless noted
This is part of a sample that, as a whole, favours compounds with a hit. Of some 83,000 tested, about 20% had one in any assay. Calls of active or inactive are those of the source. Rule for the calls: active = growth percent below 10; inactive = the rest.
Labels: active, inactive

compound=CCCC[C@H](NC(=O)[C@H]1CCCN1C)C(=O)N(C)[C@H](C[C@@H](OC(C)=O)c1nc(C(=O)N[C@@H](Cc2ccccc2)C[C@H](C)C(=O)OCC)cs1)C(C)C group=inactive
compound=Fc1ccc(C2=CCNCC2)cc1 group=inactive
compound=COc1ccc(/C(C)=C(\c2ccc(OCCN3CCOCC3)cc2)c2ccc(OC(=O)Cc3ccccc3)cc2)cc1 group=inactive
compound="O=C1C2C(C(=O)[N]1[Hg][c]1cccs1)C1(Cl)C(Cl)=C(Cl)C2(Cl)C1(Cl)Cl (stereo not given)" group=inactive
compound=Cn1cc(C2=C(c3cn(C4CCN(Cc5ccccn5)CC4)c4ccccc34)C(=O)NC2=O)c2ccccc21 group=inactive
compound=N#C[Se]CCN1C(=O)c2ccccc2C1=O group=inactive
compound=CCOC(=O)N1CC1 group=inactive
compound=O=C(N/N=C\c1ccc(N(CCCl)CCCl)cc1)c1cccc([N+](=O)[O-])c1 group=inactive
compound=COc1ccc(C(O)(C(=O)O)c2ccc(OC)cc2)cc1 group=inactive
compound=CCn1c2ccccc2c2cc(C(=O)c3ccc(C)c4ccccc34)ccc21 group=inactive
compound=CCNc1nc(Cl)nc(NCC)n1 group=inactive
compound=CC(=O)O[C@H](C[C@H](C(C)C)N(C)C(=O)[C@@H](NC(=O)[C@H]1CCCCN1C)C(C)(C)C)c1nc(C(=O)N[C@@H](Cc2ccccc2)C[C@H](C)C(=O)O)cs1 group=active
compound=ClCCN(CCCl)c1ccc(-n2cnc3c(Cl)ncnc32)cc1 group=inactive
compound="O=C(O)C1C(C(=O)O)C2(Cl)C(Cl)=C(Cl)C1(Cl)C2(Cl)Cl.[Hg] (stereo not given)" group=inactive
compound=COC(=O)[C@@H](NC(=O)c1cn(CCC2CCCCC2)c2ccccc12)C(C)(C)C group=inactive
compound=O=NN1CCCc2cccc(O)c21 group=inactive
compound="O=C(CC1(O)C(=O)N(Cc2ccccc2)c2ccc(F)cc21)c1ccc(C(=O)NCC2CCC3(CC2)OOC2(CCCCC2)OO3)cc1 (stereo not given)" group=active
compound=COc1ccc(/C=C/c2cc(OC)c(OC)c(OC)c2)cc1NC(=O)/C=C/c1ccc(F)cc1 group=inactive
compound=C[C@@]12CC[C@@H](O)C[C@@H]1CC[C@H]1[C@H]2CC[C@@]2(C)[C@H](c3ccc(=O)oc3)CC[C@@]12O group=active
compound=C#Cc1ccc2c(c1)C(c1ccccc1F)=NCC(=O)N2C group=inactive

---

test system: ACHN renal; experiment: NCI-60 one-dose screen, 48 h (100 = growth as untreated, 0 = no growth, -100 = all killed); settings: 10 µM unless noted
About 83,000 compounds went through this panel and 20% of them were active in at least one assay; those are over-represented in the sample as a whole.
MEASURED_PROPERTY: growth (%)

compound="CCOP1(=O)CC(C)=C(Cl)C(P(=O)(OCC)OCC)C1 (configuration not stated)" measured_property=growth unit_of_measurement=% value_observed=110
compound=CC1(C)[C@H](O)[C@H](F)C[C@@]2(C)Oc3ccc(C(=O)Nc4ccc5c(c4)NC(=O)C54CCN(CCCCC#N)CC4)cc3C[C@H]12 measured_property=growth unit_of_measurement=% value_observed=43.1
compound=COc1ccc(/C=C\c2cc(OC)c(OC)c(OC)c2)cc1NC(=O)/C=C/c1cc(OC)c(OC)c(OC)c1 measured_property=growth unit_of_measurement=% value_observed=53.9
compound=CCC(C)(C)[C@H](NC(=O)[C@H]1CCCCN1C)C(=O)N(C)[C@H](C[C@@H](OC(C)=O)c1nc(C(=O)N[C@@H](Cc2ccccc2)C[C@H](C)C(=O)O)cs1)C(C)C measured_property=growth unit_of_measurement=% value_observed=11.4
compound=COC(=O)[C@@H](C)C[C@H](Cc1ccc(F)cc1)NC(=O)c1csc([C@@H](C[C@H](C(C)C)N(C)C(=O)[C@@H](NC(=O)[C@H]2CCCCN2C)C(C)C)OC(C)=O)n1 measured_property=growth unit_of_measurement=% value_observed=22.1
compound=CCn1c2ccccc2c2cc(C(=O)c3ccc(C)c4ccccc34)ccc21 measured_property=growth unit_of_measurement=% value_observed=23.9
compound=COC(=O)[C@@H](C)C[C@H](Cc1ccccc1)NC(=O)c1csc([C@@H](C[C@H](C(C)C)N(C)C(=O)[C@@H](NC(=O)C23CC(NC(C)=O)(C2)C3)C2CC2)OC(C)=O)n1 measured_property=growth unit_of_measurement=% value_observed=96.2

---

system: NCI-H522 lung; experiment: NCI-60 one-dose screen, 48 h; conditions: 10 µM unless noted
Compounds without any hit were thinned out: in the full panel of roughly 83,000, 20% have a hit. Calls of active or inactive are those of the source. Rule for the calls: active = growth percent below 10; inactive = the rest.
Labels: active, inactive

compound=CC[C@H](C)[C@H](NC(=O)[C@H]1CCCCN1C)C(=O)N(C)[C@H](C[C@@H](O)c1nc(C(=O)N[C@@H](Cc2ccccc2)C[C@H](C)C(=O)O)cs1)C(C)C group=active
compound=CC[C@H](C)[C@H](NC(=O)c1cccn1C)C(=O)N(C)[C@H](C[C@@H](OC(C)=O)c1nc(C(=O)N[C@@H](Cc2ccccc2)C[C@H](C)C(=O)OC)cs1)C(C)C group=active
compound="CC12CCC3C(CCC4Cc5[nH]c6ccccc6c5CC43C)C1CCC2O (centres undefined)" group=inactive
compound=C/C(Cc1ccc(Cl)cc1)=C(\c1ccc(OCCN2CCOCC2)cc1)c1ccc(OC(=O)Cc2ccccc2)cc1 group=inactive

---

test system: HT29 colon; test: NCI-60 one-dose screen, 48 h (100 = growth as untreated, 0 = no growth, -100 = all killed); details: 10 µM unless noted
This is part of a sample that, as a whole, favours compounds with a hit. Of some 83,000 tested, about 20% had one in any assay.
MEASURED_PROPERTY: growth (%)

molecule="O=C1CCC2(O)[C@@H]3Cc4ccc(O)c5c4[C@]2(CCN3Cc2ccoc2)C1O5 (stereo not given in full)" measured_property=growth value_observed=102
molecule="C=CC12CCN(CC1)C(C(O)c1ccnc3ccc(OC)cc13)C2 (stereo not given)" measured_property=growth value_observed=11.9
molecule="CCN(CC)c1ccc2c(c1)OC(N)=C(C#N)C2c1cc(OC)c2c(c1)OCO2 (stereo not given)" measured_property=growth value_observed=-9.44
molecule=COC(=O)[C@]12CCC(C)(C)C[C@H]1[C@H]1C(=O)C[C@@H]3[C@@]4(C)C[C@@]5(CC(C)(C)[C@@H]4CC[C@@]3(C)[C@]1(C)CC2)OO[C@@](C)(C(F)(F)F)O5 measured_property=growth value_observed=102
molecule=CCCCCCCC[n+]1ccc2ccccc2c1 measured_property=growth value_observed=42.4
